Recorded values, source PubChem BioAssay.

procedure_details: probe aNOTCH3 binding on compound microarray – biochemical, small-molecule microarray, 635/667 nm fluorescence, primary screen (AID 1120);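 also: probe is a biotin-tagged antibody raised against NOTCH3 rather than NOTCH3 protein; score merges spot fluorescence near 667 nm with spot signal to noise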
measurement_parameters: higher = more signal
The label depends only on composite z-score: true if it is at least -0.1, false if it is smaller.

molecule | category_label
CCCCCCc1nc(-c2ccc(-c3ccc(Cl)c(Cl)c3)o2)cc2c1[Si](C(C)C)(C(C)C)OC2 | false
CCCCC(=C=CC[C@H](O)c1ccc(CO)o1)CCO | true
COC(=O)c1cccc([C@H]2OC(=CC(=O)OC(C)C)C[C@@H](c3cccc(C(=O)OC)c3)O2)c1 | true
O=C1N(CCS(=O)(=O)c2ccccc2)c2ccccc2C[C@]12N=C(c1ccc(OCCCO)cc1)O[C@@H]2c1ccccc1 | false
CC(C)(C)N1CC=CC23O[C@@H]4/C=C\CCCOC(=O)C4[C@H]2C(=O)N(CCCO)[C@@H]3C1=O (stereo partly drawn) | true
C=C(/C(=C/C[C@@H](OC(C)=O)c1cccc(OCCO)c1)c1cnc2ccccc2c1)C(C)C | true
